Answer each item with its documented Weight.
test: Body weight of mice after injection of LNP-formulated luciferase saRNA; assay type: in vivo; conditions: Day 0 (before injection), intramuscular, 1 μg luciferase saRNA in LNP
Numbers only, in g.

Below are 2 molecules. Give each one its Weight.
1. CCCCCCCCCCC(O)CN(CCN1CCN(CCN(CC(O)CCCCCCCCCC)CC(O)CCCCCCCCCC)CC1)CCN(CC(O)CCCCCCCCCC)CC(O)CCCCCCCCCC (stereo not shown) [Compound C12-200, reference compound]
2. CCCCCCC(CCCC)C(=O)NCCN1CCN(CCN(CCCCOC(=O)C(CCCC)CCCCCC)CCCCOC(=O)C(CCCC)CCCCCC)CC1 (stereo not shown)

Result string:
1: 28.61; 2: 27.07

Below are 2 molecules. Give each one its Weight.
1. CCCCCCC(CCCC)C(=O)OCCCCN(CCCCOC(=O)C(CCCC)CCCCCC)CCN1CCN(CCOC(=O)C(CCCC)CCCCCC)CC1 (stereo not shown)
2. CCCCCCCCCCCCCCOC(=O)CCN(CCC(=O)OCCCCCCCCCCCCCC)CCN1CCN(CCN(CCC(=O)OCCCCCCCCCCCCCC)CCC(=O)OCCCCCCCCCCCCCC)CC1 [Comparator 1, reference compound]

Result string:
1: 28.03; 2: 26.56

---

experiment: LNP particle size, polydispersity index and charge by Zeta Sizer; assay type: physicochemical; conditions: LNP lipid:DOPE:Cholesterol:DMG-PEG 35:20:43.5:1.5, N/P about 40/1, firefly luciferase saRNA
endpoint-label: Polydispersity Index (PI)
One number for each entry.

CCCCCCC(CCCC)C(=O)NCCN1CCN(CCN(CCCCOC(=O)C(CCCC)CCCCCC)CCCCOC(=O)C(CCCC)CCCCCC)CC1 (stereo not shown) [Compound 8-27]	0.16
CCCCCCCCCCC(O)CN(CCN1CCN(CCN(CC(O)CCCCCCCCCC)CC(O)CCCCCCCCCC)CC1)CCN(CC(O)CCCCCCCCCC)CC(O)CCCCCCCCCC (stereo not shown) [Compound C12-200, reference compound]	0.10

Below are 2 compounds. Give each one its Polydispersity Index (PI).
1. CCCCCCC(CCCC)C(=O)OCCCCN(CCCCOC(=O)C(CCCC)CCCCCC)CCN1CCN(CCOC(=O)C(CCCC)CCCCCC)CC1 (stereo not shown) [Compound 8-41]
2. CCCCCCCCCCCCCCOC(=O)CCN(CCC(=O)OCCCCCCCCCCCCCC)CCN1CCN(CCN(CCC(=O)OCCCCCCCCCCCCCC)CCC(=O)OCCCCCCCCCCCCCC)CC1 [Comparator 1, reference compound]

Result string:
0.23
0.16

---

Answer each item with its documented Weight.
test: Body weight of mice after injection of LNP-formulated luciferase saRNA; type: in vivo; details: Day 3, intramuscular, 1 μg luciferase saRNA in LNP
Reply with a number, then the unit it belongs to.

Record excerpt, results attached:
CCCCCCCCCCC(O)CN(CCN1CCN(CCN(CC(O)CCCCCCCCCC)CC(O)CCCCCCCCCC)CC1)CCN(CC(O)CCCCCCCCCC)CC(O)CCCCCCCCCC (stereo not shown) [Compound C12-200, reference compound]	28.62 g
CCCCCCC(CCCC)C(=O)OCCCCN(CCCCOC(=O)C(CCCC)CCCCCC)CCN1CCN(CCOC(=O)C(CCCC)CCCCCC)CC1 (stereo not shown) [Compound 8-41]	28.49 g
CCCCCCC(CCCC)C(=O)NCCN1CCN(CCN(CCCCOC(=O)C(CCCC)CCCCCC)CCCCOC(=O)C(CCCC)CCCCCC)CC1 (stereo not shown) [Compound 8-27]	27.57 g

Shift focus to the following entry.
Value of Weight reported for the compound CCCCCCCCCCCCCCOC(=O)CCN(CCC(=O)OCCCCCCCCCCCCCC)CCN1CCN(CCN(CCC(=O)OCCCCCCCCCCCCCC)CCC(=O)OCCCCCCCCCCCCCC)CC1 [Comparator 1, reference compound] is 27.21 g
